target: Poly [ADP-ribose] polymerase 1 (Homo sapiens, UniProt P09874); assay: Inhibition of human recombinant PARP1 after 1 hr by ELISA
Sequence (P09874 whole entry): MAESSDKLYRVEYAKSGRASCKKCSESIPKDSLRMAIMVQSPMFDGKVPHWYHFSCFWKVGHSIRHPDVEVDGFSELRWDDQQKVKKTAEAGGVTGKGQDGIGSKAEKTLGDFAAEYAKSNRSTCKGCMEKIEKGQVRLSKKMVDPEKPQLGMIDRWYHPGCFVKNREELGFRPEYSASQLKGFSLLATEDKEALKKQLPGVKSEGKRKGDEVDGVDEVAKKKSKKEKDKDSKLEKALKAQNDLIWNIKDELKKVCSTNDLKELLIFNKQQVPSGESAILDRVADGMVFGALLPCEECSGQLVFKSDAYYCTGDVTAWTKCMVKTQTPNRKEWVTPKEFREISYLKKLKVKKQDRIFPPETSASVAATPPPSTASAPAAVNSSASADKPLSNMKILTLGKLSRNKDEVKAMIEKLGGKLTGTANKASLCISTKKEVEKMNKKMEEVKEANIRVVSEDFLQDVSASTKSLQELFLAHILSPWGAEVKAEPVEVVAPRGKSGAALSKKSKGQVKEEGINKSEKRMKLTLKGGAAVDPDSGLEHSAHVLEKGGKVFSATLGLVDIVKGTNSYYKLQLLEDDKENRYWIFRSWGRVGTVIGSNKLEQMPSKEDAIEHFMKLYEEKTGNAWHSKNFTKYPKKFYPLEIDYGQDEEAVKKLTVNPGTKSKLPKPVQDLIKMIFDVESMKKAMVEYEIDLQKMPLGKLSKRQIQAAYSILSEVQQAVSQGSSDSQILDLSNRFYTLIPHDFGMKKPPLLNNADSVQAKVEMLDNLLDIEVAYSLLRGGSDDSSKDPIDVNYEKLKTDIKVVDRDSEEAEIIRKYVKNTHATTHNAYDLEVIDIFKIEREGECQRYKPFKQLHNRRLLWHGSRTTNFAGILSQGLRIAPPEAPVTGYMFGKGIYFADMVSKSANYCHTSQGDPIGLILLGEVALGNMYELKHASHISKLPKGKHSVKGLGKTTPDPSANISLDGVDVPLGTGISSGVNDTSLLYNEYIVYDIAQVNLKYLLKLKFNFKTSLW
Please note: IC50 exactly at 0.08 µM is F. Only values below 0.08 µM get T.

{"Molecule": "O=C(c1cc(Cc2n[nH]c(=O)c3ccccc23)ccc1F)N1CCc2cccc3c2C1CC3F (stereo not drawn)", "Class": "T"}
{"Molecule": "NC1CC2c3c(cccc31)CCN2C(=O)c1cc(Cc2n[nH]c(=O)c3ccccc23)ccc1F (stereo not drawn)", "Class": "T"}
{"Molecule": "C[C@@H](NC(=O)CN1CCc2cccc3c2C1CNC3=O)C(=O)N1CC=C(c2ccc(F)cc2)CC1 (stereo partly drawn)", "Class": "F"}
{"Molecule": "O=C(NCC(=O)N1CCc2cccc3c2C1CNC3=O)c1cc(Cc2n[nH]c(=O)c3ccccc23)ccc1F (stereo not drawn)", "Class": "T"}
{"Molecule": "Cc1c(Cc2ccc(F)c(C(=O)N3CCc4cccc5c4C3CNC5=O)c2)n[nH]c(=O)c1C (stereo not drawn)", "Class": "T"}
{"Molecule": "O=C1NCC2c3c(cccc31)CCN2CC(=O)N1C[C@H]2CNC[C@H]2C1 (stereo partly drawn)", "Class": "F"}
{"Molecule": "CN(C(=O)c1cc(Cc2n[nH]c(=O)c3ccccc23)ccc1F)C1CC(=O)c2ccccc21 (stereo not drawn)", "Class": "T"}
{"Molecule": "O=C(CN1CCc2cccc3c2C1CNC3=O)N[C@H](Cc1ccccc1)C(=O)N1CC=C(c2ccc(F)cc2)CC1 (stereo partly drawn)", "Class": "F"}
{"Molecule": "Cc1cc(Cc2ccc(F)c(C(=O)N3CCc4cccc5c4C3CNC5=O)c2)n[nH]c1=O (stereo not drawn)", "Class": "F"}
{"Molecule": "O=C1NCC2c3c(cccc31)CCN2CC(=O)N1CCn2c(nnc2C(F)(F)F)C1 (stereo not drawn)", "Class": "F"}
{"Molecule": "O=C(c1cc(Cc2n[nH]c(=O)c3ccccc23)ccc1F)N1CCc2cccc3c2C1CNC3 (stereo not drawn)", "Class": "F"}
{"Molecule": "O=C(CN1CCc2cccc3c2C1CNC3=O)N[C@@H](Cc1ccccc1)C(=O)N1CC=C(c2ccc(F)cc2)CC1 (stereo partly drawn)", "Class": "F"}
{"Molecule": "O=C(NC1CNC(=O)c2ccccc21)c1cc(Cc2n[nH]c(=O)c3ccccc23)ccc1F (stereo not drawn)", "Class": "F"}
{"Molecule": "O=C(NC1CNC(=O)c2ccccc21)c1cccc(Cc2n[nH]c(=O)c3ccccc23)c1 (stereo not drawn)", "Class": "F"}
{"Molecule": "O=C(NC1CC(=O)c2ccccc21)c1cc(Cc2n[nH]c(=O)c3ccccc23)ccc1F (stereo not drawn)", "Class": "F"}
{"Molecule": "O=C(N[C@@H]1C[C@H](O)c2ccccc21)c1cc(Cc2n[nH]c(=O)c3ccccc23)ccc1F (relative stereo)", "Class": "T"}
{"Molecule": "O=C1NCC2c3c(cccc31)CCN2C(=O)C1CCCN1C(=O)c1cc(Cc2n[nH]c(=O)c3ccccc23)ccc1F (stereo not drawn)", "Class": "T"}
{"Molecule": "O=C(CCN1CCc2cccc3c2C1CNC3=O)NCC(=O)N1CCN(c2ncccn2)CC1 (stereo not drawn)", "Class": "F"}
